# assay-explanation: Autosampler stability at 4 °C of extracted antibiotic-spiked plasma/CAMHB samples
# test-settings: plasma extracted samples, 15 h autosampler 4 °C; HQC (nominal as E15)
assay-endpoint: Mean accuracy (%), Table S9
Give bare numbers, in %.

Record excerpt, results attached:
[
  {
    "compound-structure": "C[C@]1(Cn2ccnn2)[C@H](C(=O)O)N2C(=O)C[C@H]2S1(=O)=O",
    "Mean accuracy (%), Table S9": 107.9
  },
  {
    "compound-structure": "C[C@@H](O)[C@H]1C(=O)N2C(C(=O)O)=C(S[C@@H]3CN[C@H](C(=O)N(C)C)C3)[C@H](C)[C@H]12",
    "Mean accuracy (%), Table S9": 97.9
  },
  {
    "compound-structure": "Cn1c(N)c(NC(=O)NCCN)c[n+]1CC1=C(C(=O)O)N2C(=O)[C@@H](NC(=O)/C(=N\\OC(C)(C)C(=O)[O-])c3nsc(N)n3)[C@H]2SC1",
    "Mean accuracy (%), Table S9": 101.0
  },
  {
    "compound-structure": "C[C@H]1COc2c(N3CCN(C)CC3)c(F)cc3c(=O)c(C(=O)O)cn1c23",
    "Mean accuracy (%), Table S9": 103.6
  },
  {
    "compound-structure": "NC(=O)[C@@H]1CC[C@@H]2CN1C(=O)N2OS(=O)(=O)O",
    "Mean accuracy (%), Table S9": 95.6
  }
]

Each of the following entries comes with a recorded value; kindly state Mean accuracy (%), Table S9 for each.
1. C[C@@H]1O[C@@H]1P(=O)(O)O
2. CCN1CCN(C(=O)N[C@@H](C(=O)N[C@@H]2C(=O)N3[C@@H]2SC(C)(C)[C@@H]3C(=O)O)c2ccccc2)C(=O)C1=O

Output line:
[101.4, 89.6]

---

# assay-explanation: Long-term storage stability of antibiotics in combination with fosfomycin spiked in plasma/CAMHB (−30 °C, −80 °C)
# Format: physicochemical
# test-settings: plasma, combination with fosfomycin, 2 weeks at -30 °C; LQC (nominal as E13)
assay-endpoint: Mean accuracy (%), Table S11
Numbers only, in %.

Answered cases to consult:
[
  {
    "molecule": "C[C@@H]1O[C@@H]1P(=O)(O)O [Fosfomycin, fosfomycin]",
    "Mean accuracy (%), Table S11": 102.2
  },
  {
    "molecule": "CN(C)c1cc(NC(=O)CNC(C)(C)C)c(O)c2c1C[C@H]1C[C@H]3[C@H](N(C)C)C(O)=C(C(N)=O)C(=O)[C@@]3(O)C(O)=C1C2=O [Tigecycline, tigecycline]",
    "Mean accuracy (%), Table S11": 111.9
  },
  {
    "molecule": "C[C@@H](O)[C@H]1C(=O)N2C(C(=O)O)=C(S[C@@H]3CN[C@H](CNS(N)(=O)=O)C3)[C@H](C)[C@H]12 [Doripenem, doripenem]",
    "Mean accuracy (%), Table S11": 91.0
  },
  {
    "molecule": "C[C@@H](O)[C@H]1C(=O)N2C(C(=O)O)=C(S[C@@H]3CN[C@H](C(=O)N(C)C)C3)[C@H](C)[C@H]12 [Meropenem, meropenem]",
    "Mean accuracy (%), Table S11": 86.6
  },
  {
    "molecule": "NC(=O)[C@@H]1CC[C@@H]2CN1C(=O)N2OS(=O)(=O)O [Avibactam, avibactam]",
    "Mean accuracy (%), Table S11": 100.6
  }
]

For every record below, what is its Mean accuracy (%), Table S11?
1. C[C@]1(Cn2ccnn2)[C@H](C(=O)O)N2C(=O)C[C@H]2S1(=O)=O [Tazobactam, tazobactam]
2. Cn1c(N)c(NC(=O)NCCN)c[n+]1CC1=C(C(=O)O)N2C(=O)[C@@H](NC(=O)/C(=N\OC(C)(C)C(=O)[O-])c3nsc(N)n3)[C@H]2SC1 [Ceftolozane, ceftolozane]
3. CC(C)(O/N=C(\C(=O)N[C@@H]1C(=O)N2C(C(=O)[O-])=C(C[n+]3ccccc3)CS[C@H]12)c1csc(N)n1)C(=O)O [Ceftazidime, ceftazidime]

Output line:
[107.9, 86.9, 97.8]

---

# assay-explanation: Autosampler stability at 4 °C of extracted antibiotic-spiked plasma/CAMHB samples
# test-settings: CAMHB extracted samples, 7 h autosampler 4 °C; LQC (nominal as E13)
assay-endpoint: Mean accuracy (%), Table S8
Answers are plain numbers, in %.

Field: example entries. Status: answers known.
[
  {
    "compound-structure": "NC(=O)[C@@H]1CC[C@@H]2CN1C(=O)N2OS(=O)(=O)O",
    "Mean accuracy (%), Table S8": 108.8
  },
  {
    "compound-structure": "C[C@@H](O)[C@H]1C(=O)N2C(C(=O)O)=C(S[C@@H]3CN[C@H](CNS(N)(=O)=O)C3)[C@H](C)[C@H]12",
    "Mean accuracy (%), Table S8": 104.8
  },
  {
    "compound-structure": "Cn1c(N)c(NC(=O)NCCN)c[n+]1CC1=C(C(=O)O)N2C(=O)[C@@H](NC(=O)/C(=N\\OC(C)(C)C(=O)[O-])c3nsc(N)n3)[C@H]2SC1",
    "Mean accuracy (%), Table S8": 106.4
  },
  {
    "compound-structure": "C[C@H]1[C@H](NC(=O)/C(=N\\OC(C)(C)C(=O)O)c2csc(N)n2)C(=O)N1S(=O)(=O)O",
    "Mean accuracy (%), Table S8": 109.7
  },
  {
    "compound-structure": "C[C@]1(Cn2ccnn2)[C@H](C(=O)O)N2C(=O)C[C@H]2S1(=O)=O",
    "Mean accuracy (%), Table S8": 109.4
  }
]

Input line: Recorded Mean accuracy (%), Table S8 of `C[C@@H](O)[C@H]1C(=O)N2C(C(=O)O)=C(S[C@@H]3CN[C@H](C(=O)N(C)C)C3)[C@H](C)[C@H]12` , please.
Output line: 104.0

---

# assay-explanation: Autosampler stability at 4 °C of extracted antibiotic-spiked plasma/CAMHB samples
# test-settings: CAMHB extracted samples, 7 h autosampler 4 °C; LQC (nominal as E13)
assay-endpoint: Mean accuracy (%), Table S8
Numbers only, in %.

[
  {
    "compound": "CC(C)(O/N=C(\\C(=O)N[C@@H]1C(=O)N2C(C(=O)[O-])=C(C[n+]3ccccc3)CS[C@H]12)c1csc(N)n1)C(=O)O [Ceftazidime, ceftazidime]",
    "assay-endpoint": "Mean accuracy (%), Table S8",
    "readout-number": 110.0
  },
  {
    "compound": "CN(C)c1cc(NC(=O)CNC(C)(C)C)c(O)c2c1C[C@H]1C[C@H]3[C@H](N(C)C)C(O)=C(C(N)=O)C(=O)[C@@]3(O)C(O)=C1C2=O [Tigecycline, tigecycline]",
    "assay-endpoint": "Mean accuracy (%), Table S8",
    "readout-number": 100.6
  },
  {
    "compound": "C[C@H]1COc2c(N3CCN(C)CC3)c(F)cc3c(=O)c(C(=O)O)cn1c23 [Levofloxacin, levofloxacin]",
    "assay-endpoint": "Mean accuracy (%), Table S8",
    "readout-number": 113.0
  },
  {
    "compound": "C[C@@H]1O[C@@H]1P(=O)(O)O [Fosfomycin, fosfomycin]",
    "assay-endpoint": "Mean accuracy (%), Table S8",
    "readout-number": 107.1
  },
  {
    "compound": "CCN1CCN(C(=O)N[C@@H](C(=O)N[C@@H]2C(=O)N3[C@@H]2SC(C)(C)[C@@H]3C(=O)O)c2ccccc2)C(=O)C1=O [Piperacillin, piperacillin]",
    "assay-endpoint": "Mean accuracy (%), Table S8",
    "readout-number": 113.7
  }
]

Alright, here's another compound for you.
Input line: I have this compound here, CO/N=C(\C(=O)N[C@@H]1C(=O)N2C(C(=O)[O-])=C(C[N+]3(C)CCCC3)CS[C@H]12)c1csc(N)n1 [Cefepime, cefepime] , and I need its recorded Mean accuracy (%), Table S8.
Output line: 112.0

---

Provide the recorded Mean accuracy (%), Table S13 for the entries that follow.
# assay-explanation: Long-term storage stability of antibiotics in combination with fosfomycin spiked in plasma/CAMHB (−30 °C, −80 °C)
# Type: physicochemical
# test-settings: plasma, combination with fosfomycin, 2 weeks at -80 °C; LQC (nominal as E13)
Answers are plain numbers, in %.

[
  {
    "compound": "CC(C)(O/N=C(\\C(=O)N[C@@H]1C(=O)N2C(C(=O)[O-])=C(C[n+]3ccccc3)CS[C@H]12)c1csc(N)n1)C(=O)O",
    "unit-of-measure": "%",
    "Mean accuracy (%), Table S13": 102.6
  },
  {
    "compound": "NC(=O)[C@@H]1CC[C@@H]2CN1C(=O)N2OS(=O)(=O)O",
    "unit-of-measure": "%",
    "Mean accuracy (%), Table S13": 105.1
  },
  {
    "compound": "CN(C)c1cc(NC(=O)CNC(C)(C)C)c(O)c2c1C[C@H]1C[C@H]3[C@H](N(C)C)C(O)=C(C(N)=O)C(=O)[C@@]3(O)C(O)=C1C2=O",
    "unit-of-measure": "%",
    "Mean accuracy (%), Table S13": 109.8
  },
  {
    "compound": "C[C@]1(Cn2ccnn2)[C@H](C(=O)O)N2C(=O)C[C@H]2S1(=O)=O",
    "unit-of-measure": "%",
    "Mean accuracy (%), Table S13": 108.8
  },
  {
    "compound": "C[C@@H](O)[C@H]1C(=O)N2C(C(=O)O)=C(S[C@@H]3CN[C@H](C(=O)N(C)C)C3)[C@H](C)[C@H]12",
    "unit-of-measure": "%",
    "Mean accuracy (%), Table S13": 104.2
  },
  {
    "compound": "C[C@@H]1O[C@@H]1P(=O)(O)O",
    "unit-of-measure": "%",
    "Mean accuracy (%), Table S13": 101.8
  },
  {
    "compound": "CO/N=C(\\C(=O)N[C@@H]1C(=O)N2C(C(=O)[O-])=C(C[N+]3(C)CCCC3)CS[C@H]12)c1csc(N)n1 [Cefepime, cefepime]",
    "unit-of-measure": "%",
    "Mean accuracy (%), Table S13": 102.0
  },
  {
    "compound": "C[C@H]1[C@H](NC(=O)/C(=N\\OC(C)(C)C(=O)O)c2csc(N)n2)C(=O)N1S(=O)(=O)O",
    "unit-of-measure": "%",
    "Mean accuracy (%), Table S13": 87.6
  }
]

Please go through the list and note Mean accuracy (%), Table S13 for each compound.
1. Cn1c(N)c(NC(=O)NCCN)c[n+]1CC1=C(C(=O)O)N2C(=O)[C@@H](NC(=O)/C(=N\OC(C)(C)C(=O)[O-])c3nsc(N)n3)[C@H]2SC1
2. C[C@@H](O)[C@H]1C(=O)N2C(C(=O)O)=C(S[C@@H]3CN[C@H](CNS(N)(=O)=O)C3)[C@H](C)[C@H]12
3. CCN1CCN(C(=O)N[C@@H](C(=O)N[C@@H]2C(=O)N3[C@@H]2SC(C)(C)[C@@H]3C(=O)O)c2ccccc2)C(=O)C1=O

Output line:
91.1
100.6
109.5
